- Tested on: RARg homodimer (NR concentration 270 nM)
- assay overview: PBM binding z-score (relative to random genomic background probes); higher = stronger binding; sequences stand for … in GC…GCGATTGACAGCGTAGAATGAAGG
The entries below are paired with their reported PBM binding z-score.
measured property: PBM binding z-score

>>> reported_value("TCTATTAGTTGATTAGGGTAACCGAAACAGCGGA")
0.53
>>> reported_value("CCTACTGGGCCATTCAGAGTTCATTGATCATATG")
1.23
>>> reported_value("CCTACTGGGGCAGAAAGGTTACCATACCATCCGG")
1.59
>>> reported_value("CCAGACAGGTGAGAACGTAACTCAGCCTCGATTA")
0.33
>>> reported_value("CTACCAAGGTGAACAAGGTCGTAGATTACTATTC")
1.6
>>> reported_value("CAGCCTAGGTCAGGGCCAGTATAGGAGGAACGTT")
3.8
>>> reported_value("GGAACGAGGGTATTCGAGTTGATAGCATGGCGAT")
0.118
>>> reported_value("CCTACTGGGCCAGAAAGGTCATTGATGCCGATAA")
4.43
